- System: NCI-H23 lung
- measurement-notes: NCI-60 one-dose screen, 48 h (100 = growth as untreated, 0 = no growth, -100 = all killed)
- applied-conditions: 10 µM unless noted
This is part of a sample that, as a whole, favours compounds with a hit. Of some 83,000 tested, about 20% had one in any assay.
So basically, if growth comes in under 70% it's condition met, and if it's 70% or more it's condition not met.

> print(dat)
                                    compound   class.assignment
 1  CS(=O)(=O)c1ccc(-c2nc3cc(Cl)ccc3n2CC(=O)N/N=C/c2ccc(Cl)cc2)cc1      condition met
 2  COc1ccc(-c2nc3sccn3c2/C=C/C(=O)c2c[nH]c3ccccc23)cc1  condition not met
 3  Cc1nc(Nc2ccc(NC(=S)Nc3ccccc3)cc2)nc2nc(Nc3ccc(S(=O)(=O)O)cc3)[nH]c(=O)c12  condition not met
 4                            NC(N)=N/N=C/CO  condition not met
 5                        CCc1nc2ccccc2[nH]1  condition not met
 6  CC1=NN(c2cccc(Cl)c2)C(=O)/C1=C\c1cn(CC(O)CN2CCCCC2)c2ccccc12 (stereo not given)  condition not met
 7  C=C1c2c(C)nn(-c3ccc(O)cc3)c2N(C)C23C[C@@H]1C1(C)c4c(C)nn(-c5ccc(O)cc5)c4N(C)C(C)(C[C@H]12)C3 (stereo not given in full)      condition met
 8  O=C(C[C@@]1(O)C(=O)Nc2c(Cl)ccc(Cl)c21)c1ccc(C2CC2)cc1      condition met
 9  CNC(=O)NCC1OC(n2cnc3c(NC(=O)Nc4ccccc4)ncnc32)C2OC(C)(C)OC12 (stereo not given)  condition not met
10  C=C1C(=O)O[C@H]2[C@H]1CC/C(COC(=O)/C=C\C(=O)NCc1ccc(Cn3c(=O)sn(CCCI)c3=O)cc1)=C\CC[C@@]1(C)O[C@@H]21      condition met

Origin of values: PubChem BioAssay (NCI)
